assay: CHI Log D procedure; type: physicochemical; conditions: pH 7.4
RECORDED ENDPOINT: CHI Log D
// print number alone

[ask] What value of measured CHI Log D is listed for CC(=O)N1CCC[C@]12CC=CCCCC1(CCCC=CCCCCCC[C@@](C)(C(=O)N[C@@H](Cc3ccccc3F)C(=O)N[C@@H](Cc3c[nH]c4ccccc34)C(=O)N[C@@H](CCC(N)=O)C(N)=O)NC(=O)[C@H](C(C)C)NC(=O)[C@H](Cc3ccccc3)NC(=O)[C@H](C)NC(=O)[C@H](C)NC(=O)[C@H](CC(=O)O)NC(=O)[C@H](CC(=O)O)NC1=O)NC(=O)[C@H](C)NC(=O)[C@H](CC(=O)O)NC2=O (some centres unmarked) [I-319] ?
[reply] 2.019

[ask] Okay, and CC(=O)N1CCC[C@]12CC=CCCCC1(CCCC=CCCCCCC[C@@](C)(C(=O)N[C@@H](Cc3ccccc3)C(=O)N[C@@H](Cc3csc4ccccc34)C(=O)N[C@@H](Cc3cn(C)cn3)C(N)=O)NC(=O)[C@H](CC(N)=O)NC(=O)[C@H](Cc3ccccc3)NC(=O)[C@H](C)NC(=O)[C@H](C)NC(=O)[C@H](CCC(=O)O)NC(=O)[C@H](CC(=O)O)NC1=O)NC(=O)[C@H](C)NC(=O)[C@H](CC(=O)O)NC2=O (some centres unmarked) [I-479] ?
[reply] 2.094

[ask] And then CC(=O)N1CCC[C@]12CC=CCCCC1(CCCC=CCCCOC(=O)N3CC[C@@](C(=O)N[C@@H](Cc4ccsc4)C(=O)N[C@@H](Cc4csc5ccccc45)C(=O)N[C@@H](CO)C(N)=O)(C3)NC(=O)[C@H](CO)NC(=O)[C@H](Cc3ccccc3)NC(=O)[C@H](C)NC(=O)[C@H](C)NC(=O)[C@H](CN(CC(=O)O)CC(F)(F)F)NC(=O)[C@H](CC(=O)O)NC1=O)NC(=O)[C@H](CC(C)(C)C)NC(=O)[C@H](CC(=O)O)NC2=O (some centres unmarked) [I-955] , what is it?
[reply] 1.998

[ask] And for CC(=O)N1CCC[C@]12CC=CCCCC1(CCCC=CCOC(=O)N(C)CCC[C@@](C)(C(=O)N[C@@H](Cc3ccccc3)C(=O)N[C@@H](Cc3c[nH]c4ccccc34)C(=O)N[C@@H](CCC(N)=O)C(N)=O)NC(=O)[C@H](C(C)C)NC(=O)[C@H](Cc3ccccc3)NC(=O)[C@H](C)NC(=O)[C@H](C)NC(=O)[C@H](CCC(=O)O)NC(=O)[C@H](CC(=O)O)NC1=O)NC(=O)[C@H](C)NC(=O)[C@H](CC(=O)O)NC2=O (some centres unmarked) [I-131] ?
[reply] 1.496

[ask] Queued: CC(=O)N1CCC[C@]12CC=CCCCC1(CCCC=CCCCCOC(=O)N3CC[C@@](C(=O)N[C@@H](Cc4ccsc4)C(=O)N[C@@H](Cc4csc5ccccc45)C(=O)N[C@@H](Cc4c[nH]cn4)C(N)=O)(C3)NC(=O)[C@H](CC(N)=O)NC(=O)[C@H](Cc3ccccc3)NC(=O)[C@H](C)NC(=O)[C@H](C)NC(=O)[C@H](CC(=O)O)NC(=O)[C@H](CC(=O)O)NC1=O)NC(=O)[C@H](CC(C)(C)C)NC(=O)[C@H](CC(=O)O)NC2=O (some centres unmarked) [I-775]
[reply] 2.092

###

test: CHI Log D procedure; assay type: physicochemical; details: pH 7.4
RECORDED ENDPOINT: CHI Log D

Some entries whose results are on file:
CC(=O)N1CCC[C@]12CC=CCCCC1(CCCC=CCCCCCC[C@@](C)(C(=O)N[C@@H](Cc3ccccc3)C(=O)N[C@@H](Cc3c[nH]c4ccccc34)C(=O)N[C@@H](CCC(N)=O)C(N)=O)NC(=O)[C@H](C(C)C)NC(=O)[C@H](Cc3ccccc3)NC(=O)[C@H](C)NC(=O)[C@H](C)NC(=O)[C@H](Cc3cccc(C(F)(F)F)c3)NC(=O)[C@H](CC(=O)O)NC1=O)NC(=O)[C@H](C)NC(=O)[C@H](CC(=O)O)NC2=O (some centres unmarked): 3.101
CC(=O)N1CCC[C@]12CC=CCCCC1(CCCC=CCCCOC(=O)N3CC[C@@](C(=O)N[C@@H](Cc4ccsc4)C(=O)N[C@@H](Cc4csc5ccccc45)C(=O)N[C@@H](CCC(N)=O)C(N)=O)(C3)NC(=O)[C@H](CC(N)=O)NC(=O)[C@H](Cc3ccccc3)NC(=O)[C@H](C)NC(=O)[C@H](C)NC(=O)[C@H](CN(CC(=O)O)CC(F)(F)F)NC(=O)[C@H](CC(=O)O)NC1=O)NC(=O)[C@H](CC(C)(C)C)NC(=O)[C@H](CC(=O)O)NC2=O (some centres unmarked) [I-761]: 2.207

[ask] I would be grateful if you could share the reported CHI Log D for CC[C@H](C)[C@@H]1NC(=O)C[C@H](CC(=O)O)NC(=O)[C@]2(CC=CCCCC3(CCCC=CCCCCCC[C@@](C)(C(=O)N[C@@H](Cc4ccccc4)C(=O)N[C@@H](Cc4csc5ccccc45)C(=O)N[C@@H](CCC(N)=O)C(N)=O)NC(=O)[C@H](CCC(N)=O)NC(=O)[C@H](Cc4ccccc4)NC(=O)[C@H](C)NC(=O)[C@H](C)NC(=O)[C@H](CCC(=O)O)NC(=O)[C@H](CC(=O)O)NC3=O)NC1=O)CCCN2C(C)=O (some centres unmarked) [I-671] .
[reply] 2.25

[ask] Same again, this time with COc1cccc(C[C@@H]2NC(=O)[C@H](C)NC(=O)[C@H](C)NC(=O)[C@H](CC(=O)O)NC(=O)[C@H](CC(=O)O)NC(=O)[C@](C)(NC(=O)[C@H](C)NC(=O)[C@H](CC(=O)O)NC(=O)[C@H](Cc3ccccc3)NC(C)=O)CCCCCCC=CCOC(=O)N3CC[C@@](C(=O)N[C@@H](Cc4ccccc4)C(=O)N[C@@H](Cc4c[nH]c5ccccc45)C(=O)N[C@@H](CCC(N)=O)C(N)=O)(C3)NC(=O)[C@H](C(C)C)NC2=O)c1 [I-104]
[reply] 1.333

[ask] For CC(=O)N1CCC[C@]12CC=CCCCC1(CCCC=CCCCCCC[C@@](C)(C(=O)N[C@@H](Cc3ccccc3)C(=O)N[C@@H](Cc3c[nH]c4ccccc34)C(=O)N[C@@H](CCC(N)=O)C(N)=O)NC(=O)[C@H](C(C)C)NC(=O)[C@H](Cc3ccc(Cl)cc3)NC(=O)[C@H](C)NC(=O)[C@H](C)NC(=O)[C@H](CC(=O)O)NC(=O)[C@H](CC(=O)O)NC1=O)NC(=O)[C@H](C)NC(=O)[C@H](CC(=O)O)NC2=O (some centres unmarked) [I-308] then?
[reply] 2.03

###

biological target: full-length beta-Catenin (Uniprot ID P35222) (Homo sapiens, UniProt P35222); construct: 10 nM full-length beta-Catenin (Uniprot ID P35222); experiment: Fluorescence polarization IC50 (beta-catenin / 5FAM-TCF4 10-53 competition); format: binding; settings: fluorescence polarization; read-out: beta-Catenin FP IC50
Sequence (P35222 whole entry): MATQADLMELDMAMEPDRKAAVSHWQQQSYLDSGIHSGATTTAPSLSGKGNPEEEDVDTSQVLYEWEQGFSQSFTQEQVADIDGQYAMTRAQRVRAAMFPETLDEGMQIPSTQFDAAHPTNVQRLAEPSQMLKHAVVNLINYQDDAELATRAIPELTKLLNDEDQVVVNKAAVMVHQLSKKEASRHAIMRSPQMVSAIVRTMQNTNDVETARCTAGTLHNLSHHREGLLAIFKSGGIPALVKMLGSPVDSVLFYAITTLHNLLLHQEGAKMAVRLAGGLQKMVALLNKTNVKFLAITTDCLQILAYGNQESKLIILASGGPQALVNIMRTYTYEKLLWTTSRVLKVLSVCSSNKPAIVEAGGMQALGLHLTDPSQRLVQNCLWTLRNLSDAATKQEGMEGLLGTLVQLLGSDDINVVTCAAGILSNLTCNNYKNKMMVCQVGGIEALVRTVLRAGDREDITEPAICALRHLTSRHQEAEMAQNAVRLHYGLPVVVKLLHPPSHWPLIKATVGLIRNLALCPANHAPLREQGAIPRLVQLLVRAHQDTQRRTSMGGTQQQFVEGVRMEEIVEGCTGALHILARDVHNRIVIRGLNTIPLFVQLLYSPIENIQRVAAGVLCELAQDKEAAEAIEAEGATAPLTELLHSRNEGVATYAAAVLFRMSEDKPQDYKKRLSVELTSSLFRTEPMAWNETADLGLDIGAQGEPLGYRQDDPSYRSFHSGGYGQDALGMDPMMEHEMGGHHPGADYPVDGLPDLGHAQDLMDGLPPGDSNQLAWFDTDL
RECORDED ENDPOINT: pIC50
# log scale: pIC50 equals minus log10 of the concentration in mol/L

CC(=O)N1CCC[C@]12CC=CCCCC1(CCCC=CCCCOC(=O)N3CC[C@@](C(=O)N[C@@H](Cc4ccsc4)C(=O)N[C@@H](Cc4csc5ccccc45)C(=O)N[C@@H](CCC(N)=O)C(N)=O)(C3)NC(=O)[C@H](CC(N)=O)NC(=O)[C@H](Cc3ccccc3N)NC(=O)[C@H](C)NC(=O)[C@H](C)NC(=O)[C@H](CC(=O)O)NC(=O)[C@H](CC(=O)O)NC1=O)NC(=O)[C@H](CC(C)(C)C)NC(=O)[C@H](CC(=O)O)NC2=O (some centres unmarked): 7.85

Now look at this one.
[ask] Item CC(=O)N1CCC[C@]12CC=CCCC1(CCC=CCCOC(=O)N3CC[C@@](C(=O)N[C@@H](Cc4ccsc4)C(=O)N[C@@H](Cc4csc5ccccc45)C(=O)N[C@@H](CCC(N)=O)C(N)=O)(C3)NC(=O)[C@H](CC(C)C)NC(=O)[C@H](Cc3ccccc3)NC(=O)[C@H](C)NC(=O)[C@H](C)NC(=O)[C@H](CC(=O)O)NC(=O)[C@H](CC(=O)O)NC1=O)NC(=O)[C@H](CC(C)(C)C)NC(=O)[C@H](CC(=O)O)NC2=O (some centres unmarked) has what recorded pIC50?
[reply] 6.36

###

molecular target: full-length beta-Catenin (Uniprot ID P35222) (Homo sapiens, UniProt P35222); construct: 10 nM full-length beta-Catenin (Uniprot ID P35222); assay: Fluorescence polarization IC50 (beta-catenin / 5FAM-TCF4 10-53 competition); format: binding; conditions: fluorescence polarization; read-out: beta-Catenin FP IC50
# note: exactly 100 nM is not below, so it is NOT MET; use MET for IC50 strictly under it

CC(=O)N1CCC[C@]12CC=CCCCC1(CCCC=CCCCOC(=O)N3CC[C@@](C(=O)N[C@@H](Cc4ccsc4)C(=O)N[C@@H](Cc4csc5ccccc45)C(=O)N[C@H](CCC(N)=O)C(N)=O)(C3)NC(=O)[C@H](CC(C)C)NC(=O)[C@H](Cc3ccccc3)NC(=O)[C@H](C)NC(=O)[C@H](C)NC(=O)[C@H](CC(=O)O)NC(=O)[C@H](CC(=O)O)NC1=O)NC(=O)[C@H](CC(C)(C)C)NC(=O)[C@H](CC(=O)O)NC2=O (stereo partly shown): MET

[ask] Lab note: confirm whether the reported IC50 for this molecule is below 100 nM, equality not counting. molecule: COCCC(=O)N1CCC[C@]12CC=CCCCC1(CCCC=CCCCCCC[C@@](C)(C(=O)N[C@@H](Cc3ccccc3Cl)C(=O)N[C@@H](Cc3csc4ccccc34)C(=O)N[C@@H](CCC(N)=O)C(N)=O)NC(=O)[C@H]([C@@H](C)O)NC(=O)[C@H](Cc3ccccc3)NC(=O)[C@H](C)NC(=O)[C@H](C)NC(=O)[C@H](CC(=O)O)NC(=O)[C@H](CC(=O)O)NC1=O)NC(=O)[C@H](CC(C)(C)C)NC(=O)[C@H](CC(=O)O)NC2=O (stereo partly shown)
[reply] MET

Source of measurements: patent US20240116985A1
